Experiment: Inhibition of beta-lactamase AmpC in Pseudomonas aeruginosa assessed as inhibition of hydrolysis of nitrocefin
observation.type: IC50 (nM)
Answer format: numeric, nM implied, no suffix.

Task: Please list IC50 recorded for the compound `O=C(NCC1CCNCC1)[C@@H]1CC[C@@H]2CN1C(=O)N2OS(=O)(=O)O`
Result: 30

Task: Find the measured IC50 of `C[n+]1ccc(NC(=O)[C@@H]2CC[C@@H]3CN2C(=O)N3OS(=O)(=O)[O-])cc1` and report it.
Result: 210

Task: Entry `CN1CCC(NC(=O)[C@@H]2CC[C@@H]3CN2C(=O)N3OS(=O)(=O)O)CC1` needs its IC50 filled in; supply it.
Result: 500

Task: Using known records, supply IC50 for `O=C(Nc1ccncc1)[C@@H]1CC[C@@H]2CN1C(=O)N2OS(=O)(=O)O`
Result: 6

Task: Fill in reported IC50 for this entry: `O=C(Nc1ccccn1)[C@@H]1CC[C@@H]2CN1C(=O)N2OS(=O)(=O)O`
Result: 1.2

Task: Input `O=C(N[C@H]1CCCNCC1)[C@@H]1CC[C@@H]2CN1C(=O)N2OS(=O)(=O)O` , output reported IC50.
Result: 69

Task: Given `O=C(N[C@@H]1CCCNCC1)[C@@H]1CC[C@@H]2CN1C(=O)N2OS(=O)(=O)O` , respond with its IC50.
Result: 520

Task: Tell me measured IC50 for `N[C@@H](Cc1ccc(NC(=O)[C@@H]2CC[C@@H]3CN2C(=O)N3OS(=O)(=O)O)cc1)C(=O)O` please.
Result: 11

Task: # return recorded IC50 for entry `O=C(N[C@@H]1CCNC1)[C@@H]1CC[C@@H]2CN1C(=O)N2OS(=O)(=O)O`
Result: 1900
